- EXPERIMENTAL SYSTEM: MDM2 (Homo sapiens)
- EXPERIMENT NOTES: MDM2 binding screen of Libraries 3 and 4: displacement of fluorescent probe F-M8 at 750 nM macrocycle
- EXPERIMENTAL CONTEXT: Panel b, Library 3: 63 scaffolds combinatorially acylated with 15 carboxylic acids at 30 picomole scale; displacement of fluorescent peptide probe; macrocycle 750 nM
Recorded fraction of fluorescent probe displaced determines the group label, using lower range (below -0.005), middle range (-0.005 to below 0.008), upper range (0.008 or more)

Field: example entries. Status: answers known.
1) O=C(CCS(=O)(=O)c1ccccc1)NC[C@H]1NC(=O)C2(CC2)CNC(=O)CCSSCCNC(=O)[C@H](Cc2cccc3ccccc23)NC1=O : upper range
2) O=C1CCSSCCNC(=O)[C@@H](Cc2c[nH]c3ccccc23)NC(=O)[C@H](CNC(=O)c2cccc(Oc3ccccc3)c2)NC(=O)C2(CC2)CN1 : middle range

Class? Entry: O=C(NCC1NC(=O)C2CN(CCO2)C(=O)CCSSCCNC(=O)C(Cc2ccc3ccccc3c2)NC1=O)c1ccc2ccccc2c1 (centres unmarked) middle range

Class? Entry: `CN1C(=O)CN(CCNC(=O)c2ccc3ccccc3c2)C(=O)C2(CC2)CNC(=O)CCSSCCNC(=O)[C@@H]1Cc1c[nH]c2ccccc12` upper range

Class? Entry: `Cn1cc(C[C@@H]2NC(=O)[C@@H](CNC(=O)c3ccc(Cl)cc3)NC(=O)[C@H]3CCCN(C3)C(=O)CCSSCCNC2=O)c2ccccc21` lower range

Class? Entry: O=C1CN(CCNC(=O)C2COc3ccccc3O2)C(=O)[C@@H]2CN(CCO2)C(=O)CCSSCCNC(=O)[C@H](Cc2c[nH]c3ccccc23)N1 (some centres unmarked) lower range

Class? Entry: `O=C(CCS(=O)(=O)c1ccccc1)NC[C@@H]1NC(=O)[C@@H]2CN(CCO2)C(=O)CCSSCCNC(=O)[C@H](Cc2cccc3ccccc23)NC1=O` upper range

---

- EXPERIMENTAL SYSTEM: MDM2 (Homo sapiens, UniProt Q00987)
- Sequence (Q00987 whole entry): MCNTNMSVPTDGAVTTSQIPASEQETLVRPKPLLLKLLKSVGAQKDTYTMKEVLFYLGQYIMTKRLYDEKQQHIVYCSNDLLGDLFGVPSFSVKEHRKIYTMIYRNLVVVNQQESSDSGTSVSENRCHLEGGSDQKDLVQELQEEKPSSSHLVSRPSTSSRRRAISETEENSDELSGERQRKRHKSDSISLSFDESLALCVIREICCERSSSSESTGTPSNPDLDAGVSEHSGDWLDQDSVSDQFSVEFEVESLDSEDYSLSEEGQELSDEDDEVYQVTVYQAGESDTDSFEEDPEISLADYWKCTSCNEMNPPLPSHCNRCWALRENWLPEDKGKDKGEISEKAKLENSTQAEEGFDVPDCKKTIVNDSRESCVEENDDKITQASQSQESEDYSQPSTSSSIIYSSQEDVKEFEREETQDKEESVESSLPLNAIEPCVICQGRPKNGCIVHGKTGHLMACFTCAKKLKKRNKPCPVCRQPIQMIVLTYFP
- EXPERIMENT NOTES: MDM2 binding screen: displacement of fluorescent p53 peptide probe FP53 (fluorescence polarization)
- EXPERIMENTAL CONTEXT: crude reaction of macrocycle scaffold with Acid 25; replicate
MEASURED PROPERTY: fraction fluorescent probe displaced
One number for each entry.

Worked examples follow.
1) O=C1NC(Cc2ccccc2)C(=O)NC2(CCN(C(=O)c3ccc(Cl)cc3)CC2)C(=O)NCCSSCCC(=O)N2CCCC1C2 (stereo not shown) [X B4 F D6 + Acid 25] : 0.17
2) O=C1NCCSSCCC(=O)N2CCCC(C2)C(=O)N2CCN(C(=O)c3ccc(Cl)cc3)CC2C(=O)NC1Cc1ccccc1 (stereo not shown) [X B4 D7 F + Acid 25] : 0.10
3) O=C1NC2(CCN(C(=O)c3ccc(Cl)cc3)CC2)C(=O)N[C@@H](Cc2ccccc2)C(=O)NCCSSCCC(=O)N2CCC[C@H]1C2 [X B4 D6 F + Acid 25] : 0.10

compound O=C1CCSSCCNC(=O)[C@H](Cc2ccccc2)NC(=O)[C@H]2CCCN(C2)C(=O)C2(CCN(C(=O)c3ccc(Cl)cc3)CC2)N1 [X D6 B4 F + Acid 25] , fraction fluorescent probe displaced observed: 0.15

---

Exercise: for every item that follows, state its recorded percent residual thrombin activity.
- EXPERIMENTAL SYSTEM: thrombin (Homo sapiens, UniProt P00734)
- Construct: consists of two polypeptide chains of 36 (light chain) and 259 amino acid
- EXPERIMENT NOTES: Thrombin inhibition screen of crude macrocycle reactions (residual thrombin activity, fluorogenic substrate Z-Gly-Gly-Arg-AMC)
- Format: biochemical
- EXPERIMENTAL CONTEXT: 10 µM macrocycle concentration; crude reactions, Library 1a-l; scaffold AA1-AA2-AA3 combined with 1-16 or '-'
Numbered stars: 1 amine (or outer) side, 2 acyl side, 3 side chain; on linkers, the order of the positions; unused ones are H or OH. Bridge positions count the residues as written; N and C are the ends. Square brackets hold non-standard residues; d marks the D form. Peptide text beside a SMILES is read from it. Cysteamide = C(CS[*:3])N[*:1]; 3Amb = NCc1cccc(C(=O)O)c1; Mpa = O=C(O)CCS
Numbers only, in %.

Worked examples follow.
1. C[C@H]1NC(=O)CCSSCCNC(=O)c2cccc(c2)CNC(=O)[C@H](CCCCN)NC1=O [a-D1-B5/-] ([Mpa][dA]K[3Amb]-Cysteamide; disulfide 1-C) : 108.99
2. CC(C)C[C@@H]1NC(=O)CCNC(=O)CCSSCCNC(=O)[C@H](CCCNC(=O)c2ccco2)NC1=O [B2-L-D2/16] : 111.509
3. CC(C)[C@@H]1NC(=O)[C@H]2CCCN(C2)C(=O)[C@H](CCCNC(=O)COc2ccccc2)NC(=O)CCSSCCNC1=O [D2-B4-V/13] : 112.633
4. CC[C@H](C)[C@@H]1NC(=O)CCSSCCNC(=O)[C@H]2CCCN(C2)C(=O)[C@H](CCCCNC(=O)c2cnccn2)NC1=O [I-D1-B4/2] : 114.834
5. CC(C)CC(=O)NCCC[C@@H]1NC(=O)C2(CC2)CNC(=O)CCSSCCNC(=O)[C@H](Cc2ccc(O)cc2)NC1=O [B6-D2-Y/8] : 103.129

For each of the items listed, what is its percent residual thrombin activity?
1. C[C@H]1NC(=O)CCSSCCNC(=O)c2cccc(c2)CNC(=O)[C@H](CCCCNC(=O)COc2ccccc2)NC1=O [a-D1-B5/13]
2. CC(C)C[C@@H]1NC(=O)CCSSCCNC(=O)[C@H](CCCCNC(=O)c2c[nH]c(=O)cn2)NC(=O)C2(CC2)CNC1=O [L-B6-D1/9]
3. CC(C)CC(=O)NCCCC[C@@H]1NC(=O)[C@@H](Cc2c[nH]c3ccccc23)NC(=O)[C@H]2CCCN(C2)C(=O)CCSSCCNC1=O [B4-w-D1/8]
4. O=C1CCSSCCNC(=O)[C@H](CCCCNC(=O)c2c[nH]c(=O)[nH]c2=O)NC(=O)c2cccc(c2)CNC(=O)[C@H](CO)N1 [S-B5-D1/11]
5. O=C1CCSSCCNC(=O)[C@@H](Cc2ccc(O)cc2)NC(=O)CCNC(=O)[C@H](CCCNC(=O)c2ccccc2)N1 [D2-B2-y/1]
6. COc1ccc(C(=O)NCCCC[C@@H]2NC(=O)c3cccc(c3)CNC(=O)[C@H](Cc3cnc[nH]3)NC(=O)CCSSCCNC2=O)cn1 [H-B5-D1/10]
7. O=C1CCSSCCNC(=O)[C@H](Cc2c[nH]c3ccccc23)NC(=O)[C@H](CCCNC(=O)c2ccccc2)NC(=O)C2(CC2)CN1 [B6-D2-W/1]
8. Cc1cc(C(=O)NCCCC[C@@H]2NC(=O)CCNC(=O)[C@@H](CO)NC(=O)CCSSCCNC2=O)no1 [s-B2-D1/3]

[105.866, 98.21, 116.689, 117.639, 109.22, 98.3606, 97.8863, 111.495]

---

- EXPERIMENTAL SYSTEM: MDM2 (Homo sapiens)
- EXPERIMENT NOTES: MDM2 binding screen of Libraries 3 and 4: displacement of fluorescent probe F-M8 at 750 nM macrocycle
- EXPERIMENTAL CONTEXT: Panel b, Library 3: 63 scaffolds combinatorially acylated with 15 carboxylic acids at 30 picomole scale; displacement of fluorescent peptide probe; macrocycle 750 nM
MEASURED PROPERTY: fraction of fluorescent probe displaced

Worked examples follow.
1. CN1C(=O)[C@@H](CNC(=O)c2ccc3ccccc3c2)NC(=O)C2(CC2)CNC(=O)CCSSCCNC(=O)[C@@H]1Cc1c[nH]c2ccccc12 : 0.031
2. O=C(CCS(=O)(=O)c1ccccc1)NC[C@@H]1NC(=O)[C@H]2CCCN(C2)C(=O)CCSSCCNC(=O)[C@H](Cc2c[nH]c3cc(Cl)ccc23)NC1=O : -0.012

molecule `CN1C(=O)[C@H](CNC(=O)/C=C/c2ccncc2)NC(=O)[C@H]2CCCN(C2)C(=O)CCSSCCNC(=O)[C@@H]1Cc1c[nH]c2ccccc12` , fraction of fluorescent probe displaced observed: -0.021

---

- EXPERIMENTAL SYSTEM: MDM2 (Homo sapiens)
- EXPERIMENT NOTES: MDM2 binding screen of Libraries 3 and 4: displacement of fluorescent probe F-M8 at 750 nM macrocycle
- EXPERIMENTAL CONTEXT: Panel b, Library 3: 63 scaffolds combinatorially acylated with 15 carboxylic acids at 30 picomole scale; displacement of fluorescent peptide probe; macrocycle 750 nM
MEASURED PROPERTY: fraction of fluorescent probe displaced
Answers are plain numbers.

1) Cn1cc(C[C@@H]2NC(=O)[C@@H](CNC(=O)/C=C/c3ccc(Cl)cc3)NC(=O)C3(CC3)CNC(=O)CCSSCCNC2=O)c2ccccc21 : 0.008

For each of the items listed, what is its fraction of fluorescent probe displaced?
1. O=C(NC[C@H]1NC(=O)[C@H]2CCCN(C2)C(=O)CCSSCCNC(=O)[C@H](Cc2cccc3ccccc23)NC1=O)c1ccc(Cl)s1
2. O=C1NC(CNC(=O)C2COc3ccccc3O2)C(=O)NC(Cc2c[nH]c3ccccc23)C(=O)NCCSSCCC(=O)N2CCCC1C2 (mixture of isomers)
3. O=C(CCS(=O)(=O)c1ccccc1)NC[C@H]1NC(=O)[C@@H]2CN(CCO2)C(=O)CCSSCCNC(=O)[C@H](Cc2cccc3ccccc23)NC1=O

1: -0.019; 2: 0.00133; 3: 0.008

For each of the items listed, what is its fraction of fluorescent probe displaced?
1. O=C(/C=C/c1ccc2ccccc2c1)NC[C@@H]1NC(=O)[C@H]2CCCN(C2)C(=O)CCSSCCNC(=O)[C@@H](Cc2c[nH]c3ccccc23)NC1=O
2. Cn1cc(CC2NC(=O)C(CNC(=O)C=Cc3ccc(OCc4ccccc4)cc3)NC(=O)C3CN(CCO3)C(=O)CCSSCCNC2=O)c2ccccc21 (stereo not drawn)
3. O=C(CCS(=O)(=O)c1ccccc1)NC[C@H]1NC(=O)[C@H]2CCCN(C2)C(=O)CCSSCCNC(=O)[C@H](Cc2cccc3ccccc23)NC1=O

[0.021, 0.028, -0.00533]

For each of the items listed, what is its fraction of fluorescent probe displaced?
1. CN1C(=O)CN(CCNC(=O)c2ccc(Cl)s2)C(=O)[C@@H]2CN(CCO2)C(=O)CCSSCCNC(=O)[C@@H]1Cc1c[nH]c2ccccc12
2. O=C(NC[C@@H]1NC(=O)[C@H]2CCCN(C2)C(=O)CCSSCCNC(=O)[C@H](Cc2cccc3ccccc23)NC1=O)c1ccc(Cl)s1
3. O=C(CCS(=O)(=O)c1ccccc1)NC[C@H]1NC(=O)[C@H]2CCCN(C2)C(=O)CCSSCCNC(=O)[C@@H](Cc2c[nH]c3ccccc23)NC1=O
4. O=C(/C=C/c1ccc(OCc2ccccc2)cc1)NC[C@H]1NC(=O)[C@@H]2CN(CCO2)C(=O)CCSSCCNC(=O)[C@H](Cc2c[nH]c3cc(Cl)ccc23)NC1=O
5. Cn1cc(C[C@@H]2NC(=O)CN(CCNC(=O)c3ccc(Cl)s3)C(=O)C3(CC3)CNC(=O)CCSSCCNC2=O)c2ccccc21
6. O=C1CN(CCNC(=O)c2ccc(Cl)s2)C(=O)[C@@H]2CN(CCO2)C(=O)CCSSCCNC(=O)[C@H](Cc2c[nH]c3cc(Cl)ccc23)N1
7. O=C(/C=C/c1ccc(OCc2ccccc2)cc1)NC[C@H]1NC(=O)C2(CC2)CNC(=O)CCSSCCNC(=O)[C@H](Cc2cccc3ccccc23)NC1=O

1: -0.025; 2: 0.028; 3: 0.021; 4: 0.035; 5: -0.00533; 6: -0.00533; 7: 0.028

For each of the items listed, what is its fraction of fluorescent probe displaced?
1. O=C(NC[C@@H]1NC(=O)[C@@H]2CN(CCO2)C(=O)CCSSCCNC(=O)[C@H](Cc2cccc3ccccc23)NC1=O)c1ccc(Cl)s1
2. CC(Oc1cccc(Cl)c1)C(=O)NCCN1CC(=O)N[C@@H](Cc2c[nH]c3ccccc23)C(=O)NCCSSCCC(=O)NCC2(CC2)C1=O (stereo partly drawn)

[0.008, 0.035]
